Molecular target: Cathepsin K (Homo sapiens, UniProt P43235)
Construct: purchased Biovision K150-100
Sequence (P43235 115-329): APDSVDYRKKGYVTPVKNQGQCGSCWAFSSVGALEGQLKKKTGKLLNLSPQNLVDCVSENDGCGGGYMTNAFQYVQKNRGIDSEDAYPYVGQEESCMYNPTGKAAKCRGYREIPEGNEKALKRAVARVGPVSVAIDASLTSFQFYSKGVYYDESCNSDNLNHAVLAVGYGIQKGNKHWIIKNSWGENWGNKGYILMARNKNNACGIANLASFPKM
Test: Preliminary screening of Cathepsin K (Cathepsin K Inhibitor Screening Kit K150-100, Biovision)
Assay type: biochemical
Conditions: 1 μM compound; replicate 2; relative inhibition rate vs 10 μM FF-FMK control; read-out: Inhibition % (1 μM) replicate 2
The following molecules are shown together with reported inhibition at 1 µM values.
Give the quantity in %, number only.

> print(dat)
                                   molecule                       experimental.target   observed.property  endpoint.result
1  CCOC(=O)[C@H]1O[C@@H]1C(=O)N[C@@H](CCSC)C(=O)N1CCCC1  Cathepsin K (Homo sapiens, UniProt P43235)  inhibition at 1 µM            -7.42
2  CCOC(=O)[C@H]1O[C@@H]1C(=O)N[C@@H](CCSC)C(=O)NCCc1cccc(F)c1  Cathepsin K (Homo sapiens, UniProt P43235)  inhibition at 1 µM             90.8
3  CCCNC(=O)[C@H](CCSC)NC(=O)[C@H]1O[C@@H]1C(=O)OCC  Cathepsin K (Homo sapiens, UniProt P43235)  inhibition at 1 µM             23.6
4  CCOC(=O)[C@H]1O[C@@H]1C(=O)N[C@@H](CCSC)C(=O)NCC(C)C  Cathepsin K (Homo sapiens, UniProt P43235)  inhibition at 1 µM             18.1
5  CCOC(=O)[C@H]1O[C@@H]1C(=O)N[C@@H](CSCc1ccccc1)C(=O)NC(C)CC (stereo partly shown)  Cathepsin K (Homo sapiens, UniProt P43235)  inhibition at 1 µM             20.4
6  CCOC(=O)[C@H]1O[C@@H]1C(=O)N[C@@H](CSCc1ccccc1)C(=O)NCCc1ccc(C)cc1  Cathepsin K (Homo sapiens, UniProt P43235)  inhibition at 1 µM             29.9

Asked: Please report the recorded inhibition at 1 µM for CCOC(=O)[C@H]1O[C@@H]1C(=O)N[C@@H](CCSC)C(=O)N1CCCCC1CC (stereo partly shown) .
Given back: 22.8
